experiment: in vitro; settings: human, Caco-2, Papp A-B, Average
EXPERIMENTAL ENDPOINT: Papp A→B (×10⁻⁶ cm/s)
Numbers only; they are read as ×10⁻⁶ cm/s.

Answered cases to consult:
COMPOUND: O=C(O)c1cccc(N2CC(O)(c3cnc(OCc4c(-c5c(Cl)cccc5Cl)noc4C4CC4)cn3)C2)c1 [TM-02]
Papp A→B, ×10⁻⁶ cm/s: 9.02
--
COMPOUND: CC(C)c1onc(-c2c(Cl)cccc2Cl)c1COc1cnc(C2(O)CC(c3cccc(C(=O)O)c3)C2)cn1 (centres unmarked) [TM-06]
Papp A→B, ×10⁻⁶ cm/s: 7.17
--
COMPOUND: O=C(O)c1cccc(C2CC(O)(c3cnc(OCc4c(-c5c(Cl)cccc5Cl)noc4C4CC4)cn3)C2)c1 (centres unmarked) [TM-01]
Papp A→B, ×10⁻⁶ cm/s: 8.17
--
COMPOUND: Cc1cc(C(=O)O)cc(C2CC(O)(c3cnc(OCc4c(-c5c(Cl)cccc5Cl)noc4C(C)C)cn3)C2)c1 (centres unmarked) [TM-09]
Papp A→B, ×10⁻⁶ cm/s: 8.75
--
COMPOUND: CC(C)(C)NCC(O)COc1cccc2c1CC(O)C(O)C2 (centres unmarked) [Nadolol, reference compound]
Papp A→B, ×10⁻⁶ cm/s: 0.07
--
COMPOUND: Cc1cc(C(=O)O)cc(C2CC(O)(c3cnc(OCc4c(-c5c(Cl)cccc5Cl)noc4C4CC4)cn3)C2)c1 (centres unmarked) [TM-08]
Papp A→B, ×10⁻⁶ cm/s: 0.97

Ask: Data request, read-out Papp A→B, for COCCc1ccc(OCC(O)CNC(C)C)cc1 (centres unmarked) [Metoprolol, reference compound]
Result: 18.1

###

Property: Papp A→B; scope: individual compounds
Experiment: in vitro
Settings: human, Caco-2, Papp A-B, Sample-02
Description: The bi-directional transport of target compounds from apical side (AP) to basolateral side (BL) and from BL side to AP side is studied by using human colon adenocarcinoma cell line Caco-2 monolayer model. The transport parameters, apparent permeability coefficient (Papp) and efflux ratio are calculated by quantitative analysis with high performance liquid chromatography (HPLC).
Give the value, in units of ×10⁻⁶ cm/s, as a plain number.

As a guide, the following entries are already answered.
COMPOUND: CC(C)c1onc(-c2c(Cl)cccc2Cl)c1COc1cnc(C2(O)CC(c3cccc(C(=O)O)c3)C2)cn1 (centres unmarked)
Papp A→B / ×10⁻⁶ cm/s: 6.48
//
COMPOUND: Cc1cc(C(=O)O)cc(C2CC(O)(c3cnc(OCc4c(-c5c(Cl)cccc5Cl)noc4C4CC4)cn3)C2)c1 (centres unmarked)
Papp A→B / ×10⁻⁶ cm/s: 0.94

Ask: # query: Papp A→B of entry Cc1cc(C(=O)O)cc(C2CC(O)(c3cnc(OCc4c(-c5c(Cl)cccc5Cl)noc4C(C)C)cn3)C2)c1 (centres unmarked)
Result: 9.05

Ask: May I ask what Papp A→B has been recorded for CC(C)(C)NCC(O)COc1cccc2c1CC(O)C(O)C2 (centres unmarked) [Nadolol, reference compound] ?
Result: 0.06

Ask: Look up Papp A→B: `O=C(O)c1cccc(N2CC(O)(c3cnc(OCc4c(-c5c(Cl)cccc5Cl)noc4C4CC4)cn3)C2)c1`
Result: 9.47

Ask: Report Papp A→B for COCCc1ccc(OCC(O)CNC(C)C)cc1 (centres unmarked) [Metoprolol, reference compound] please.
Result: 16.8

Ask: Could you tell me which Papp A→B is on file for O=C(O)c1cccc(C2CC(O)(c3cnc(OCc4c(-c5c(Cl)cccc5Cl)noc4C4CC4)cn3)C2)c1 (centres unmarked) ?
Result: 9.91

###

system: C57/BL6 mice fed MCD diet; experiment: Pharmacodynamic test in methionine-choline deficient diet (MCD) model of non-alcoholic fatty liver disease; assay type: in vivo; settings: MCD mice, 3 weeks; TM 30 mpk, obeticholic acid 40 mpk, gavage
Would you mind labelling by Food intake, 3 weeks? At or over 2 g is yes (1), under is no (0).

Here's what some known entries look like.
COMPOUND: O=C(O)c1cccc(N2CC(O)(c3cnc(OCc4c(-c5c(Cl)cccc5Cl)noc4C4CC4)cn3)C2)c1 [TM-02]
LABEL: no (0)
--
COMPOUND: CC(C)c1onc(-c2c(Cl)cccc2Cl)c1COc1cnc(C2(O)CC(c3cccc(C(=O)O)c3)C2)cn1 (centres unmarked) [TM-06]
LABEL: yes (1)
--
COMPOUND: Cc1cc(C(=O)O)cc(C2CC(O)(c3cnc(OCc4c(-c5c(Cl)cccc5Cl)noc4C(C)C)cn3)C2)c1 (centres unmarked) [TM-09]
LABEL: yes (1)
--
COMPOUND: O=C(O)c1cccc(C2CC(O)(c3cnc(OCc4c(-c5c(Cl)cccc5Cl)noc4C4CC4)cn3)C2)c1 (centres unmarked) [TM-01]
LABEL: no (0)

Ask: Confirm if Food intake, 3 weeks reported for the compound CC[C@H]1[C@@H](O)[C@@H]2[C@H](CC[C@]3(C)[C@@H]([C@H](C)CCC(=O)O)CC[C@@H]23)[C@@]2(C)CC[C@@H](O)C[C@@H]12 [obeticholic acid, reference compound] is 2 g or above.
Result: yes (1)

###

assay: Caco-2 monolayer cell membrane transport experiment; details: human, Caco-2, Recovery rate B-A, Sample-02, Caco-2, B-A, Sample-02
EXPERIMENTAL ENDPOINT: recovery (%)
Kindly provide the numeric value in % only, without the unit symbol.

Ask: Which recovery is reported for this compound? C[C@H]1O[C@@H](O[C@H]2[C@@H](O)C[C@H](O[C@H]3[C@@H](O)C[C@H](O[C@H]4CC[C@@]5(C)[C@H](CC[C@@H]6[C@@H]5C[C@@H](O)[C@]5(C)[C@@H](C7=CC(=O)OC7)CC[C@]65O)C4)O[C@@H]3C)O[C@@H]2C)C[C@H](O)[C@@H]1O [Digoxin, digoxin, reference compound]
Result: 95.4

###

Biological target: GST-labeled recombinant human FXR protein (Homo sapiens, UniProt Q96RI1)
Construct: purchased Invitroren (so in the source)
Sequence (Q96RI1 262-486 limits assumed): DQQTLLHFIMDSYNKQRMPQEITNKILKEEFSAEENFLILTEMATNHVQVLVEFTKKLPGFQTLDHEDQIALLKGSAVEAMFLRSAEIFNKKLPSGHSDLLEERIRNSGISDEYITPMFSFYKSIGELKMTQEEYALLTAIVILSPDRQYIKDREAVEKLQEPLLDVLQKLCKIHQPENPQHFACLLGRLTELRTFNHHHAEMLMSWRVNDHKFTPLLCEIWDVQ
Sequence (Q15788 676-700 partner limits assumed): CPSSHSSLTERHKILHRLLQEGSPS
Experiment: Agonistic activity on FXR receptor (GST-FXR / SRC-1 bead assay, protein level)
Format: biochemical
Settings: judgement on Table 1 results
EXPERIMENTAL ENDPOINT: FXR agonistic activity at protein level (in words)

MOLECULE: OC1(c2cnc(OCc3c(-c4c(Cl)cccc4Cl)noc3C3CC3)cn2)CC(c2cccc(Sc3ccccc3)c2)C1 (stereo not shown)
RECORDED RESULT: poor activity
//
MOLECULE: O=C(O)c1cccc(C2CC(O)(c3cnc(OCc4c(-c5c(Cl)cccc5Cl)noc4-c4ccccc4)cn3)C2)c1 (stereo not shown)
RECORDED RESULT: poor activity
//
MOLECULE: Cc1cc(C(=O)O)cc(C2CC(O)(c3cnc(OCc4c(-c5c(Cl)cccc5Cl)noc4-c4ccccc4)cn3)C2)c1 (stereo not shown)
RECORDED RESULT: poor activity

###

system: C57/BL6 mice fed MCD diet; assay: Pharmacodynamic test in methionine-choline deficient diet (MCD) model of non-alcoholic fatty liver disease; format: in vivo; conditions: MCD mice, liver, after 4 weeks; TM 30 mpk, obeticholic acid 40 mpk
Please note: True applies when liver TC is 40 µmol/g protein or greater, and False applies otherwise.

Example entries begin here.
COMPOUND: Cc1cc(C(=O)O)cc(C2CC(O)(c3cnc(OCc4c(-c5c(Cl)cccc5Cl)noc4C(C)C)cn3)C2)c1 (centres unmarked)
TEST TARGET: C57/BL6 mice fed MCD diet
LABEL: False

COMPOUND: CC[C@H]1[C@@H](O)[C@@H]2[C@H](CC[C@]3(C)[C@@H]([C@H](C)CCC(=O)O)CC[C@@H]23)[C@@]2(C)CC[C@@H](O)C[C@@H]12 [obeticholic acid, reference compound]
TEST TARGET: C57/BL6 mice fed MCD diet
LABEL: False

COMPOUND: O=C(O)c1cccc(C2CC(O)(c3cnc(OCc4c(-c5c(Cl)cccc5Cl)noc4C4CC4)cn3)C2)c1 (centres unmarked)
TEST TARGET: C57/BL6 mice fed MCD diet
LABEL: False

COMPOUND: CC(C)c1onc(-c2c(Cl)cccc2Cl)c1COc1cnc(C2(O)CC(c3cccc(C(=O)O)c3)C2)cn1 (centres unmarked)
TEST TARGET: C57/BL6 mice fed MCD diet
LABEL: False

Ask: Tell me whether liver TC is at least 40 µmol/g protein here: `O=C(O)c1cccc(N2CC(O)(c3cnc(OCc4c(-c5c(Cl)cccc5Cl)noc4C4CC4)cn3)C2)c1`
Result: True

Recorded values, source patent US12486259B2.
